Molecular target: human MMP-9 (gelatinase B) (Homo sapiens)
Construct: endogenous in cells; host or cells: HT1080 human fibrosarcoma cells (ATCC CCL-121), PMA-stimulated; enzyme purified from the culture supernatant
Sequence (P14780 107-707 limits assumed): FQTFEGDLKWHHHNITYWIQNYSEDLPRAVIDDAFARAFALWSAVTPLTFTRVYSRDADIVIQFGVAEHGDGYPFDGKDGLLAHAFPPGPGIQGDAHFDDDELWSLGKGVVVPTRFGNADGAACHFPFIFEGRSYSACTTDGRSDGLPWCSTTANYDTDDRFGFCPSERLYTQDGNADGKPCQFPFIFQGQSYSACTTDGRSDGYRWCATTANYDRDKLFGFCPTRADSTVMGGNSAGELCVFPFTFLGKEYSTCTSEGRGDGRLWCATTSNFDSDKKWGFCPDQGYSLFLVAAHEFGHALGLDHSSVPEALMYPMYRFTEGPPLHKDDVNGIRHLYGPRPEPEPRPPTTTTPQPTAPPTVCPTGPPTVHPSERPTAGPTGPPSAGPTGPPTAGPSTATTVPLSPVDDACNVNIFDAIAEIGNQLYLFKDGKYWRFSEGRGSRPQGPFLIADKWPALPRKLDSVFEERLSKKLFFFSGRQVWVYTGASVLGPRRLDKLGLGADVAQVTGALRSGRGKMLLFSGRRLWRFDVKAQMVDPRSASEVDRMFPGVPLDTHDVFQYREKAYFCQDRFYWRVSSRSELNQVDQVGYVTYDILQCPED
Test: Inhibition activity against human MMP-9 (gelatinase B), fluorescent peptide substrate
Assay type: biochemical
Conditions: compounds of the formula (I); average of 1st and 2nd (or single measurement); read-out: MMP-9 inhibition activities IC50, Average
metric_name: IC50 (µM)
Only the number, expressed in µM, is required.

Look up IC50 with human MMP-9 (gelatinase B) (Homo sapiens) for this molecule: NNC(=C[N+](=O)[O-])NS(=O)(=O)c1ccccc1
40.1

Queued: CNC(=C[N+](=O)[O-])NNc1cc(C(F)(F)F)cc(OCc2ccco2)n1
39.6

Queued: NNC(=C[N+](=O)[O-])NCc1ccc(C(F)(F)F)cc1
40.1

Try this molecule too: CNC(=C[N+](=O)[O-])NNc1ccnc2cc(Cl)ccc12
23.9

Likewise for CNC(=C[N+](=O)[O-])NNS(=O)(=O)c1ccccc1 ?
23.9

Also CNC(=C[N+](=O)[O-])NNc1cc(OC)nc(OC)n1 , if possible.
28.2
